- SYSTEM_UNDER_TEST: M. tuberculosis class II fructose 1,6-bisphosphate aldolase (MtFBA) (Mycobacterium tuberculosis, UniProt P9WQA3)
- Sequence (P9WQA3 whole entry): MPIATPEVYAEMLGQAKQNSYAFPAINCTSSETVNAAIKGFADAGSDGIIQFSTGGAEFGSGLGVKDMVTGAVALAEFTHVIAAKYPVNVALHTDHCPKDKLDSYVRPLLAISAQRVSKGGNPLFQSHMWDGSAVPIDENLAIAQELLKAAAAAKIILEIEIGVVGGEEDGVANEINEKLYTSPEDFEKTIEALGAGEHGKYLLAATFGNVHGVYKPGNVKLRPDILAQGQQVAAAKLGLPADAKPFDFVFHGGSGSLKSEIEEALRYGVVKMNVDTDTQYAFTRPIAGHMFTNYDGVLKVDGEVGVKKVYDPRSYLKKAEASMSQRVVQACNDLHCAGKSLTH
MEASURE_NAME: Kd

[
  {
    "COMPOUND": "O=C(O)c1ccc2cccc(O)c2n1 [HCA, 8-hydroxyquinoline-2-carboxylic acid]",
    "ENDPOINT_RESULT": "70.8 µM"
  }
]

Origin of values: paper PMC4167715
